Measured Endpoint: melting point

O=C(CO)c1ccc(Cl)c(Cl)c1 ... 115 to 118 °C
CC(C)(C)c1cc(C(C)(CC(=O)NN)c2cc(C(C)(C)C)c(O)c(C(C)(C)C)c2)cc(C(C)(C)C)c1O ... 172 °C
CS(=O)(=O)Nc1ccc(Cl)c(F)c1 ... 109 to 111 °C
O=C(c1cccc2nc3n(c12)CCCN3c1ccc(Cl)cc1Cl)C1CC1 ... 189 to 190 °C

Your task in this section: give melting point for each listed record.
1. CCN(CC)c1c([N+](=O)[O-])cc(C(F)(F)F)c(Cl)c1[N+](=O)[O-]
2. OCc1cc2c3n(ccc-2n1)CC(Br)=N3
3. CCOC(=O)CC(=NNc1ccc(C(=O)O)cc1C)C(C)=O
4. CC(C)Oc1cc(COc2cc(CCC(=O)O)n(-c3ccccc3)n2)cc(COc2ccc(Cl)cc2Cl)c1
5. CC(C)OCC1(C(F)(F)F)c2cc(C#N)ccc2Nc2ncc(Br)cc21 (centres undefined)
6. S=c1oc2ccccc2o1
7. NC1=CC=C2C=c3c(cnn3-c3ccccc3)=C2C1=O

Return:
1: 35 to 36 °C; 2: 113 to 115 °C; 3: 161 to 162 °C; 4: 108 to 110 °C; 5: 76 to 77 °C; 6: 151 to 153 °C; 7: 200 to 202 °C

Your task in this section: give melting point for each listed record.
1. O=C(O)CCSC1c2cccc(O)c2C(=O)c2c(O)cccc21
2. COc1ccc(S(=O)(=O)Nc2cccc3c2Nc2ccccc2CO3)cc1
3. CN1C(=O)CN(NC(=O)CNC(=O)OCc2ccccc2)C(c2ccccc2)c2cc(Cl)ccc21 (centres undefined)
4. CCOC(=O)c1cc(-c2ccc3ccccc3c2)[nH]c1N
5. COC(=O)C1=C(CCc2ccccc2OC)NC(CC(=O)N2CCN(CCCN(C)C)CC2)=C(C(=O)OC)C1c1c(Cl)cccc1Cl (centres undefined)
6. COCCN(C)Cc1c(-c2ccc([N+](=O)[O-])cc2)sc2c1c(=O)n(-c1ccc3c(c1)OCO3)c(=O)n2Cc1c(F)cccc1F
7. CCOC(=O)c1cc(COc2cc3ncnc(Nc4ccc(Cl)cc4F)c3cc2OC)ccn1
8. CCCc1c(OCCCCCOc2cccc(NC(=O)C(=O)O)c2)ccc(C(C)=O)c1O

Return:
1: 152 to 153 °C; 2: 154 to 155 °C; 3: 184 to 190 °C; 4: 149 to 151 °C; 5: 156 to 158 °C; 6: 190 to 192 °C; 7: 212 to 214 °C; 8: 117 to 118 °C

---

For each record, write down the corresponding melting point.

COc1ccc(O)c(Br)c1 ... 37 to 38 °C
CC(=O)OC1COC(n2c(Br)nc3cc(Cl)c(Cl)cc32)C(OC(C)=O)C1OC(C)=O (stereo not given) ... 100 to 110 °C
CCCC(=O)Nc1n[nH]c2cc(-c3ccc(OC)cc3)ccc12 ... 210 °C
CCCCn1c(CO)nc2c(Cl)nc3ccccc3c21 ... 184 to 185 °C

Your task in this section: give melting point for each listed record.
1. CNc1cn(-c2cccnc2)nc1Cl
2. Cc1c(C2CCN(Cc3ccc(Cl)cc3)CC2)n[nH]c1-c1ccccc1
3. NNC(=O)Cc1cc(C(=O)c2ccc(I)c(N)c2)sc1-c1ccccc1
4. COc1ccccc1CC(=O)N1C[C@H]2C[C@H](CO)C[C@](O)(c3ccccc3OC)[C@H]2C1 (racemic)

Return:
104 to 106 °C
192 to 193 °C
159 to 165 °C
162 °C

Your task in this section: give melting point for each listed record.
1. COc1ccc(-c2ccnc(Nc3cc(OC)c(OC)c(OC)c3)n2)cc1
2. O=Cc1ccc(CC(=O)OCc2ccccc2)cc1

Return:
["148 to 150 °C", "54 to 55 °C"]

Values were extracted from a melting point compilation (Tetko et al.; mined from patent text by program, amines drawn as free bases though some values may be those of a salt).
